SYSTEM TESTED: CHIP (Homo sapiens)
Construct: N-term truncated CHIP (also known as STUB1, Uniprot ID: Q9UNE7, residues 23-303); made in house; host or cells: E. coli BL21 CodonPlus
Sequence (Q9UNE7 23-303): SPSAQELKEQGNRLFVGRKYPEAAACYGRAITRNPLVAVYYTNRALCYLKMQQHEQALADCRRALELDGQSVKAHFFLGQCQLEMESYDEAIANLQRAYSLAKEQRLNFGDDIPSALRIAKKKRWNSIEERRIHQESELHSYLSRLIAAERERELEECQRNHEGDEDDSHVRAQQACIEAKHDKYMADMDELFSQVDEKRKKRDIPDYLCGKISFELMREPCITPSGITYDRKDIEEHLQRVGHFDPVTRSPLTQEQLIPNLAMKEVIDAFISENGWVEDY
PROTOCOL: Naive Library Presenter Screening (phage, NGS), CHIP
Type: binding
TEST CONDITIONS: CHIP clusters (C83, C84); target concentration 10 nM
Numbered stars: 1 amine (or outer) side, 2 acyl side, 3 side chain; on linkers, the order of the positions; unused ones are H or OH. Bridge positions count the residues as written; N and C are the ends. Ends that are not written are not given here. Phenylene(1,4-NHCOCH2)2 = O=C(C[*:1])Nc1ccc(NC(=O)C[*:2])cc1
MEASUREMENT TYPE: interaction data at Target Concentration 10
Enter the number alone.

INSERT INTO measurements (sequence_code, endpoint_value) VALUES
  ('DPALEECTQAAHICMVD (linker 7-14 via Phenylene(1,4-NHCOCH2)2 (inferred); not fully specified (C-terminus))', 0),
  ('DPAIIWCSQAASICTVD (linker 7-14 via Phenylene(1,4-NHCOCH2)2 (inferred))', 0),
  ('DPAVHNCSQAASICDVD (linker 7-14 via Phenylene(1,4-NHCOCH2)2 (inferred); not fully specified (C-terminus))', 0);

According to the records, this sequence DPANHICHYAAHICDVD (DPANHICHYAAHICDVD-NH2; linker 7-14 via Phenylene(1,4-NHCOCH2)2 (inferred)) displays interaction data at Target Concentration 10 of 0

According to the records, this sequence DPAFDRCQWAAALCMMN (linker 7-14 via Phenylene(1,4-NHCOCH2)2 (inferred)) displays interaction data at Target Concentration 10 of 0

According to the records, this sequence DPAFWQCQFAAATCAHY (linker 7-14 via Phenylene(1,4-NHCOCH2)2 (inferred)) displays interaction data at Target Concentration 10 of 0

According to the records, this sequence DPAFTACQFAAAMCDSS (linker 7-14 via Phenylene(1,4-NHCOCH2)2 (inferred)) displays interaction data at Target Concentration 10 of 0

###

SYSTEM TESTED: CUL5 (Homo sapiens, UniProt Q93034, L345D/V341R)
Construct: GST-TEV (N, cleaved yes); made in house; host or cells: E. coli BL21 CodonPlus
Sequence (Q93034 1-386 V341R/L345D): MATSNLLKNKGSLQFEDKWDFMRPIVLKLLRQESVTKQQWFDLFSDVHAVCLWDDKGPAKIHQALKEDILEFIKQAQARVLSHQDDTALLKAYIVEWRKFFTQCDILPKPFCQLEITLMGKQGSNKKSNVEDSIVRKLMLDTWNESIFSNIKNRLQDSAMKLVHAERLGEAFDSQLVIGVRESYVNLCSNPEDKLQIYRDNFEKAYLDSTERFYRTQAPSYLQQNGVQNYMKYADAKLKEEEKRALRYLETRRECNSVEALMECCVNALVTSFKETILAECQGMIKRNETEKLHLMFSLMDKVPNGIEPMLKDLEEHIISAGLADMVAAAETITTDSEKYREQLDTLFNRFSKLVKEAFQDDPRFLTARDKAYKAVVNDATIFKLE
PROTOCOL: Naive Library Presenter Screening (phage, NGS), CUL5
Type: binding
TEST CONDITIONS: CUL5 target concentration 300 nM
Ends that are not written are not given here.
Threshold check on interaction data at Target Concentration 300: at or above 60 gives criterion met, strictly below gives criterion not met.

The examples below pair each entry with its known result.
INSERT INTO assay_data (sequence_code, category_label) VALUES
  ('DPAWHMCAEAAWQCAFW (not fully specified (C-terminus, bridges); cysteine pairing not given here)', 'criterion met'),
  ('DPAWQWCAEAAWQCITH (not fully specified (C-terminus, bridges); cysteine pairing not given here)', 'criterion met'),
  ('DPAWRACAQAAWDCIIA', 'criterion met'),
  ('DPAWMRCATAAWECVMT', 'criterion met'),
  ('DPAWFDCAEAAWQCVFI', 'criterion met');

Ask: Quick check: does `DPAIQQCAEAAWSCYVE` have interaction data at Target Concentration 300 greater than or equal to 60?
Reply: criterion not met

Ask: Quick check: does `DPAYYVCAEAAWNCLFE` have interaction data at Target Concentration 300 greater than or equal to 60?
Reply: criterion met
